# target of assay: T1, Human EphA2 (ephrin receptor A2) (human, UniProt P29317 24-976)
# T1 construct: Endogenous protein in frozen human tumor tissue and tumor adjacent tissue, not a recombinant construct
# T1 sequence (P29317 24-976 limits assumed): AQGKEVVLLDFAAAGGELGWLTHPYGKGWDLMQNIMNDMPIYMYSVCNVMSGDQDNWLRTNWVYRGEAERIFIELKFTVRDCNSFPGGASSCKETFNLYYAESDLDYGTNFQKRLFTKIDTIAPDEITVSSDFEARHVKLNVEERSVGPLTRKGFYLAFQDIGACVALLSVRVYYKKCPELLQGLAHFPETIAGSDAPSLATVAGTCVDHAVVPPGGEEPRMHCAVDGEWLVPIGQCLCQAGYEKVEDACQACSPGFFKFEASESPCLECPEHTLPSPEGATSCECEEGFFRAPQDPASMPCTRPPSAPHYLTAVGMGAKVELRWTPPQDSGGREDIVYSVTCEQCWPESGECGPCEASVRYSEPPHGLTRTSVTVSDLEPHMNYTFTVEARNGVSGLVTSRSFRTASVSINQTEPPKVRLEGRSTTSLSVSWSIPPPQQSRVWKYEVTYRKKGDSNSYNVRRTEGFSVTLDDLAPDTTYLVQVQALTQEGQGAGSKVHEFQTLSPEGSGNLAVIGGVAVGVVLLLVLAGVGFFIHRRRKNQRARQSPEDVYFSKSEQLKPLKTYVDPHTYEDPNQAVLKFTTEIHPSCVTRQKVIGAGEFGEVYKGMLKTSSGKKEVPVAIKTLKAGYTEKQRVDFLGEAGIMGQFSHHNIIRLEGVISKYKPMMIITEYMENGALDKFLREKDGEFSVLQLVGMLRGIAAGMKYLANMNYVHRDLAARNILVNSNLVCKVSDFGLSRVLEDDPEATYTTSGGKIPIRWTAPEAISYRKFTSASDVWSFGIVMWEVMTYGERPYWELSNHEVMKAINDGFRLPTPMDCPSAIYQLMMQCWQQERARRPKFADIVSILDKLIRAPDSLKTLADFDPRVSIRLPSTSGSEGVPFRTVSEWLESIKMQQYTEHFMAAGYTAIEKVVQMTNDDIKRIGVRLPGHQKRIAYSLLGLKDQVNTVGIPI
# method summary: IHC/IF score on frozen human tumor tissue, NSCLC-Adeno
Each entry below carries its reported IHC score.

Observe how each entry below is paired with its result.
AB-009816 (antibody, mouse IgG2a, V domains shown) VH: QVQLQQWGAGLLKPSETLSLTCAVYGGSFSDYYWSWIRQPPGKGLEWIGEVNHRGSINYNNYNPSLKSRVTISVDASKNQFSLKLTSVTAADTAVYYCAKPLRPHCTNGVCYSGDAFDIWGQGTMVTVAS VL: SYVLTQPPSVSVAPGQTARITCGGNNIGSKNVHWYQQKPGQAPVLVVYDDSDRPSGIPEQFSGSNSGNTATLTISRVEAGDEADYYCQVWDSSSDHLVFGGGTKLTVL    2
AB-009813 (antibody, mouse IgG2a, V domains shown) VH: QVQLQQWGAGLLKPSETLSLTCAVYGGSFSDYYWSWIRQPPGKGLEWIGEVNHAGSINYNNYNPSLKSRVTISVDPSKNQFSLKLTSVTAADTAVYYCAKPLRPHCTNGVCYSGDAFDIWGQGTMVTVAS VL: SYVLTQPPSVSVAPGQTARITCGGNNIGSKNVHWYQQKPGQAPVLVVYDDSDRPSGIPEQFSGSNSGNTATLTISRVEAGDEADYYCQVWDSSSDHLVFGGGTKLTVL    2

Consider now this further binder.
Ask: Any idea what IHC score was measured for AB-009815 (antibody, mouse IgG2a, V domains shown) VH: QVQLQQWGAGLLKPSETLSLTCAVYGGSFSDYYWSWIRQPPGKGLEWIGEVNHRGSINYNNYNPSLKSRVTISVDTSKNQFSLKLTSVTAADTAVYYCAKPLRPHCTNGVCYSGDAFDIWGQGTMVTVAS VL: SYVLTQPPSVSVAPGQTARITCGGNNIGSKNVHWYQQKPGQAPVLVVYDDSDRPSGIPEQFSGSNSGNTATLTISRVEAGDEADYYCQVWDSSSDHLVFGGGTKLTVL ?
Result: 2
